Data origin: patent US20260306453A1

Measured On: Sigma 2 (Homo sapiens, UniProt Q5BJF2)
Sequence (Q5BJF2 whole entry): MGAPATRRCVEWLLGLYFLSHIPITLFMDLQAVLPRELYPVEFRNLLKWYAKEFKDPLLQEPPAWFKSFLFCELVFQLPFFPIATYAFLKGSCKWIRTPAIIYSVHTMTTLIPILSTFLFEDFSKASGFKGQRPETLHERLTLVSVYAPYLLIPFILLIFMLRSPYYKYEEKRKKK
Test Description: Radioligand binding in vitro assay, Sigma 2
Run Parameters: radioligand binding; read-out: Ki Sigma 2
pKi: −log10 of the molar value.
Attribute Measured: pKi

### Prompt Any idea what its pKi is? The compound is CC(C)N(CCc1c(Br)[nH]c2ccccc12)C(C)C [drawing 13]
### Response 6.32

### Prompt Please look up its pKi: CC(=O)Nc1cccc2[nH]cc(CCN(C)C)c12 [drawing 15]
### Response < 5.00

### Prompt // lookup pKi for CN(C)CCc1c(Cl)[nH]c2ccccc12 [drawing 10]
### Response < 5.00

### Prompt Give its pKi value. Item: CC(=O)Oc1cccc2[nH]cc(CCN(C)C)c12 [drawing 11]
### Response < 5.00

### Prompt Need pKi of CN(C)CCc1c[nH]c2cccc(NS(C)(=O)=O)c12 [drawing 14] , thanks.
### Response < 5.00

### Prompt Report pKi for CN(C)CCc1c(Br)[nH]c2ccccc12 [drawing 9] please.
### Response 5.61

### Prompt For the compound shown here, CC(=O)Oc1cccc2[nH]c(Br)c(CCN(C)C)c12 [drawing 12] , give the reported pKi.
### Response < 5.00

---

Could you please report measured EC50 for the items listed next?
Measured On: 5-HT2A (Homo sapiens)
Sequence (P28223 whole entry): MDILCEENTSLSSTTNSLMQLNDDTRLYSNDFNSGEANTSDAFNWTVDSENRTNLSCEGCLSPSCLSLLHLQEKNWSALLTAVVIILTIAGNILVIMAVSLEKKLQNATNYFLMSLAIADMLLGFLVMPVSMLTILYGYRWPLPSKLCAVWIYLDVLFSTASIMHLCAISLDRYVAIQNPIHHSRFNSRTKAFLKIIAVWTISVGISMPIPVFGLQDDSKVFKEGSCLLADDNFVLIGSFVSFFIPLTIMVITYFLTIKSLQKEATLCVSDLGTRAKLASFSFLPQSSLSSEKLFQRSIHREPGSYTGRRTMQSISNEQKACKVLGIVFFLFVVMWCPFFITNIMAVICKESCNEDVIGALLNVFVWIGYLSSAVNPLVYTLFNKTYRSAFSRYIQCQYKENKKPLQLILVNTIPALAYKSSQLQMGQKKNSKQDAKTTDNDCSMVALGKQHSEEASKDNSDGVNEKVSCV
Test Description: In vitro functional activity, 5-HT2A
Run Parameters: agonism
Hi! Could you send only the number? It should be in nM, unit omitted.

### Prompt May I ask what EC50 has been recorded for CN(C)CCc1c(Cl)[nH]c2ccccc12 [drawing 17] ?
### Response 202

### Prompt Param item = CC(C)N(CCc1c(Br)[nH]c2ccccc12)C(C)C [drawing 19] ; retrieve measured EC50.
### Response 2130

---

Provide the recorded EC50 for the entries that follow.
Measured On: 5-HT7A (Homo sapiens)
Sequence (P34969 other isoform, or with tags, fused parts or gaps): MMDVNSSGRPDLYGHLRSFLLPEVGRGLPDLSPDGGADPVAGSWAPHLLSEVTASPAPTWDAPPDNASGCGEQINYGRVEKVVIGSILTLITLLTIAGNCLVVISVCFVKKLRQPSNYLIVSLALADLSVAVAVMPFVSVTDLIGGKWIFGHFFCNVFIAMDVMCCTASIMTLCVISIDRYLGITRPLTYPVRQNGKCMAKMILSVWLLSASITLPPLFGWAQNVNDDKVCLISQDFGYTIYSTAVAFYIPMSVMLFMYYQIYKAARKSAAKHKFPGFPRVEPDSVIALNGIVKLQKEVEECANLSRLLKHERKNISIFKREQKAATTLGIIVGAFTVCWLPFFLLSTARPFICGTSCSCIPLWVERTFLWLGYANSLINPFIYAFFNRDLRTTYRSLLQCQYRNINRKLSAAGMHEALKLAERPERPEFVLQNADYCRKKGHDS
Test Description: In vitro functional activity, 5-HT7A
Run Parameters: agonism; inverse agonism at 5-HT7A
Report as a plain number; the unit nM is understood.

### Prompt Any idea what its EC50 is? The molecule is CN(C)CCc1c(Br)[nH]c2ccccc12 [drawing 16]
### Response 225

### Prompt Given the molecule CN(C)CCc1c(Cl)[nH]c2ccccc12 [drawing 17] , what is its reported EC50?
### Response 630

### Prompt Consider the molecule shown here: CC(C)N(CCc1c(Br)[nH]c2ccccc12)C(C)C [drawing 19] What is its recorded EC50?
### Response 5870

### Prompt Entry under review: CC(=O)Oc1cccc2[nH]c(Br)c(CCN(C)C)c12 [drawing 18] . Reported EC50?
### Response 917

---

Measured On: 5-HT7A (Homo sapiens)
Test Description: Radioligand binding in vitro assay, 5-HT7A
Run Parameters: radioligand binding
Kindly state Ki for each of the entries shown.
Give your result in nM as a bare value.

### Prompt What value of Ki on 5-HT7A (Homo sapiens) does CN(C)CCc1c[nH]c2cccc(NS(C)(=O)=O)c12 [drawing 14] have?
### Response 930

### Prompt Missing value: Ki, 5-HT7A (Homo sapiens), entry CN(C)CCc1c(Cl)[nH]c2ccccc12 [drawing 10] . Fill in?
### Response 178

### Prompt Give Ki (5-HT7A (Homo sapiens)) of the following compound: CC(=O)Oc1cccc2[nH]cc(CCN(C)C)c12 [drawing 11]
### Response 59.6

### Prompt Item: CC(=O)Oc1cccc2[nH]c(Br)c(CCN(C)C)c12 [drawing 12] Test system: 5-HT7A (Homo sapiens) Read-out: Ki Value: ?
### Response 396

### Prompt Request body: readout Ki, system 5-HT7A (Homo sapiens), query CC(=O)Nc1cccc2[nH]cc(CCN(C)C)c12 [drawing 15] . Return the value.
### Response 290

### Prompt Field: Ki (5-HT7A (Homo sapiens)). Entry: CC(C)N(CCc1c(Br)[nH]c2ccccc12)C(C)C [drawing 13]
### Response 4930

### Prompt Item CN(C)CCc1c(Br)[nH]c2ccccc12 [drawing 9] with 5-HT7A (Homo sapiens) - Ki?
### Response 137
